# System: A549/ATCC NSCLC
# assayProcedure: NCI-60 one-dose screen, 48 h
# experimentalConditions: 10 µM unless noted
This is part of a sample that, as a whole, favours compounds with a hit. Of some 83,000 tested, about 20% had one in any assay. Calls of active or inactive are those of the source. How the source made its calls: active means growth percent below 10; inactive means the rest.
// allowed return values: Yes = active, No = inactive

Data request: For O=C1Nc2cc(-c3ccc(NS(=O)(=O)c4ccc(C(F)(F)F)cc4)cc3)ccc2/C1=C/c1ccc[nH]1 , what call appears in the results of this test?
Data returned: No

Data request: Hello, I am checking results. What call was entered for CCOC(=O)/C(F)=C/C1CC1C(c1ccccc1)c1ccccc1 (stereo not given) ?
Data returned: No
